Tested on: ATP;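 note: ATP exposure 15 min at 22 °C before imaging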
experiment-notes: switch fluorescence ratio, 500 uM ATP over buffer (Cy3 cluster intensity, sum of 5 cycles each) (fold (ratio)); higher = stronger signal-on switching upon ATP binding; sequences stand for … in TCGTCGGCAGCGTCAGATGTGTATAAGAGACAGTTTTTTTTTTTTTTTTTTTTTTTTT…TC
test-context: aptamer strand: ATP DNA aptamer (quencher-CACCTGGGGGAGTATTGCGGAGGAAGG + anchor), 100 nM annealed; ATP concentration: 500 uM
Label Satisfied for high-side switch fluorescence ratio (at or above 1) and Not satisfied for low-side switch fluorescence ratio (below it).

TAGCCATTGG
Satisfied
CGAAGTATAG
Satisfied
GGAAAAAGCC
Not satisfied

Ask: Entry TTACGGTGTT : is its switch fluorescence ratio no less than 1?
Reply: Satisfied

Ask: Entry AGGGAAGGGG : is its switch fluorescence ratio no less than 1?
Reply: Satisfied

Ask: Entry TATTCCTTGG : is its switch fluorescence ratio no less than 1?
Reply: Not satisfied

Ask: Entry GGGTCATGTC : is its switch fluorescence ratio no less than 1?
Reply: Not satisfied

Ask: Entry AGTAGAGATG : is its switch fluorescence ratio no less than 1?
Reply: Satisfied

Ask: Entry TAGTCTGCGT : is its switch fluorescence ratio no less than 1?
Reply: Satisfied

Ask: Entry GAGTGCGAAC : is its switch fluorescence ratio no less than 1?
Reply: Satisfied

Ask: Entry TCATTAAGTT : is its switch fluorescence ratio no less than 1?
Reply: Satisfied

Ask: Entry TTTTGCAAAT : is its switch fluorescence ratio no less than 1?
Reply: Satisfied

Ask: Entry CTGACGAAGG : is its switch fluorescence ratio no less than 1?
Reply: Satisfied

Ask: Entry TTCACCGGCA : is its switch fluorescence ratio no less than 1?
Reply: Satisfied

Ask: Entry GGGGAGTCGA : is its switch fluorescence ratio no less than 1?
Reply: Satisfied

Ask: Entry TTTTCGGCTC : is its switch fluorescence ratio no less than 1?
Reply: Satisfied

Ask: Entry TGGAGTAAAA : is its switch fluorescence ratio no less than 1?
Reply: Satisfied

Ask: Entry TCCCCTTTTT : is its switch fluorescence ratio no less than 1?
Reply: Satisfied

Ask: Entry GACGCGGGTC : is its switch fluorescence ratio no less than 1?
Reply: Satisfied
